# PROTOCOL DESCRIPTION: NCI Yeast Anticancer Drug Screen. Data for the sgs1 mgt1 strain (AID 161);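 further: 0% = growth of cultures given vehicle only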
# CONDITION LABEL: S. cerevisiae sgs1 mgt1 strain, at 50.0 µM, hits give high values
The panel holds about 79,000 compounds, 15% with a hit somewhere; the sample as a whole holds those more often. The source made the active and inactive calls. No stated cut-off is given here; in the data, active means growth inhibition above about 70%; inactive means the rest.
REPORTED PROPERTY: growth inhibition

Task item: Given the compound COC1CC(OC(=O)c2ccccc2)C2OC(c3ccccc3)OCC2O1 (centres undefined) , what is its reported growth inhibition?
Reply: 63.3% (inactive)

Task item: Quick one: growth inhibition of S=C(N/N=C(/c1ccccc1)c1ccccn1)Nc1ccccc1 ?
Reply: 85.3% (active)

Task item: May I ask what growth inhibition has been recorded for COC1=CC(=O)C(C#CCOCc2ccccc2)=CC1=O ?
Reply: 99% (active)

Task item: Bench note: what growth inhibition did CCNc1ncnc2c1ncn2Cc1ccco1 show?
Reply: 4.8% (inactive)

Task item: Recorded growth inhibition of COC(=O)c1nc(N)nc(C(=O)OC)c1C(=O)c1ccccc1 , please.
Reply: -29.4% (inactive)

Continuing:
Task item: Name the reported growth inhibition value associated with the compound CC(=O)OCCn1c2nc(=O)[nH]c(=O)c-2nc2cc(C)c(C)cc21
Reply: 35% (inactive)

====

# PROTOCOL DESCRIPTION: NCI Yeast Anticancer Drug Screen. Data for the sgs1 mgt1 strain (AID 161);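 further: 0% = growth of cultures given vehicle only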
# CONDITION LABEL: S. cerevisiae sgs1 mgt1 strain, at 5.0 µM (retest, dose inferred, filed as 0.5), hits give high values
The panel holds about 79,000 compounds, 15% with a hit somewhere; the sample as a whole holds those more often. The source made the active and inactive calls. No stated cut-off is given here; in the data, active means growth inhibition above about 70%; inactive means the rest.
Below is a list of entries, each paired with its recorded growth inhibition value.

Check out these entries, answers already filled in.
Task item: I would be grateful if you could share the reported growth inhibition for S=C(NCCc1ccccc1)N/N=C/c1ccc(Cl)cc1 .
Reply: 54% (inactive)

Task item: I have this compound here, CN(/N=C/C(O)C(O)C(O)CO)c1ccccc1 (stereo not given) , and I need its recorded growth inhibition.
Reply: 9% (inactive)

Continuing:
Task item: Which growth inhibition value is on record for COC(=O)c1nc(NC#N)[nH]c(=O)c1CCCCCc1cnc(NC#N)nc1 ?
Reply: -1% (inactive)

Task item: # lookup: growth inhibition of Oc1ccc(Cl)cc1Cc1cc(Cl)cc(Cc2cc(Cl)ccc2O)c1O
Reply: 4% (inactive)

Task item: # query: growth inhibition of entry Cc1ccccc1C1SCc2nc3ccccc3n21 (stereo not given)
Reply: -5% (inactive)

Task item: Bench note: what growth inhibition did C/C(CCn1[nH]c(=O)ccc1=O)=N\Nc1ccc([N+](=O)[O-])cc1[N+](=O)[O-] show?
Reply: 27% (inactive)

====

# PROTOCOL DESCRIPTION: NCI Yeast Anticancer Drug Screen. Data for the mec2-1 strain (AID 157)
# CONDITION LABEL: S. cerevisiae mec2-1 strain, at 50.0 µM (retest, dose inferred, filed as 5.0)
Compounds without any hit were thinned out: in the full panel of roughly 79,000, 15% have a hit. The source made the active and inactive calls. No stated cut-off is given here; in the data, active means growth inhibition above about 70%; inactive means the rest.
Would you mind answering with one of these outcomes? t for active, f for inactive

Task item: Outcome? CCS/C(SC)=C(/c1ccccc1)[P+](c1ccccc1)(c1ccccc1)c1ccccc1
Reply: t

Task item: Tell me the recorded outcome of this test for CC1(C)CC[C@]2(C(=O)O)CC[C@]3(C)C(=CC[C@@H]4[C@@]5(C)C[C@H](O)[C@H](O)[C@@](C)(C(=O)O)[C@@H]5CC[C@]43C)[C@@H]2C1 .
Reply: t

Task item: Per the records of this test, what outcome belongs to CC1=C(C#N)C(=O)OC1(C)C(CC(=O)c1ccccc1)c1ccccc1 (stereo unspecified) ?
Reply: f

Task item: Which outcome was assigned to CCCCCCCCCCCCCCCCS(=O)(=O)Cl in this test?
Reply: t

Task item: Kindly provide the recorded test outcome for the following molecule: Cc1ccc(O)c(C(C)(C)c2ccccc2)c1
Reply: t

***
Task item: Query: recorded result category for OCCc1ccc(-n2cnc3c(Nc4ccc(Cl)cc4)ncnc32)cc1 in this test
Reply: t

Task item: What outcome does the record of this test show for S=C1NCCNC(=S)SS1 ?
Reply: t

Task item: Recorded call for O=C(O)Cc1cccc2cc3c(ccc4ccccc43)cc12 ?
Reply: f

Task item: Assay result, entry O=C(CCCN1CCC(C(O)c2ccc(F)cc2)CC1)c1ccc(F)cc1 (stereo unspecified) — outcome?
Reply: t

Task item: For this molecule, state the assay outcome: COc1ccc(/C=C\Cc2cc3c(cc2OCCO)OCO3)cc1
Reply: t

Task item: Recorded test call requested for COc1ccc(C(CC(=O)c2ccccc2)Sc2ccccc2N)cc1 (stereo unspecified)
Reply: f
